// reported pEC50 per item
Tested on: PKC mediated IL-2 production
Assay: IL-2 ELISA, human primary T cell, anti CD3+CD28+ (whole cell functional assay)
Type: cell-based
Conditions: IL-2 production, human primary T cells stimulated with αCD3 and αCD28, 24 hours, IL-2 by ELISA; read-out: EC50
pEC50: −log10 of the molar value.

As a guide, the following entries are already answered.
query: # query: pEC50 | item CC1(C)Oc2ccc(Nc3ncc(F)c(NC4CC5CCCN5C(C)(C)C4)n3)cc2-n2nnnc21 (stereo not shown) [Compound 1] | system: PKC mediated IL-2 production
result: > 6.30

query: Here is the next compound: CC1(C)CC(Nc2nc(Nc3ccc(O[C@H]4CCOC4)c(C#N)c3)ncc2F)CC2CCCN21 (single isomer, unassigned)
result: > 6.30

query: Check COc1cc(Nc2ncc(F)c(NC3CC4CCCN4C(C)(C)C3)n2)cc(-n2nnnc2C)c1 (stereo not shown) [Compound 12] too.
result: > 6.00

***
query: Entry Cn1nnn(-c2cc(Nc3ncc(F)c(N[C@@H]4CCN5[C@@H](CCC5(C)C)C4)n3)c(F)cc2C2CC2)c1=O (single isomer, unassigned) , system PKC mediated IL-2 production: what pEC50 was measured?
result: > 5.00

query: Could you do the same for CC(=O)N(C)c1cc(Nc2ncc(F)c(NC3CC(C)(C)N4CCCC4C3C)n2)c(F)cc1C1CC1 (stereo not shown) , please?
result: > 6.30

query: Repeat for the following compound: CC1(C)CC(Nc2nc(Nc3ccc(O[C@@H]4CCOC4)c(C#N)c3)ncc2F)CC2CCCN21 (single isomer, unassigned) [Compound 59]
result: > 6.30

query: Consider next the compound CC1(C)CC(Nc2nc(Nc3cc(-n4cnnn4)c(C4CC4)cc3F)ncc2F)CC2CCCN21 (racemic) [Compound 55] in the same way.
result: > 6.30

###

Tested on: PKC mediated IL-2 production
Assay: IL-2 ELISA, human primary T cell, anti CD3+CD28+ (whole cell functional assay)
Type: cell-based
Details: IL-2 production, human primary T cells stimulated with αCD3 and αCD28, 24 hours, IL-2 by ELISA; read-out: EC50
# EC50 listing for each entry below

query: Need EC50, item CC1C(Nc2nc(Nc3cc(N(C)C(=O)N(C)C)c(C4CC4)cc3F)ncc2F)CC(C)(C)N2CCCC12 (stereo not shown)
result: < 500 nM

query: And CC1(C)CC(Nc2nc(Nc3cc(-n4cnnn4)c(C4CC4)cc3F)ncc2F)CC2CCCN21 (racemic) [Compound 54] ?
result: < 100 nM

query: What about CC(C)N1CCC(Oc2ccc(Nc3ncc(F)c(NC4CC5CCCN5C(C)(C)C4)n3)cc2OC(F)F)CC1 (stereo not shown) [Compound 8] ?
result: < 1000 nM

Continuing:
query: Give its EC50 value. Item: Cn1nnn(-c2cc(Nc3ncc(F)c(NC4CCN5CCCC5C4)n3)c(F)cc2C2CC2)c1=O (stereo not shown)
result: < 10000 nM

query: Field entry: CC(C)N1CCC(Oc2ccc(Nc3ncc(F)c(NC4CC5CCCN5C(C)(C)C4)n3)cc2OC(F)F)CC1 (stereo not shown) [Compound 9]
result: < 500 nM

query: Now consider CC(C)N1CCC(Oc2ccc(Nc3ncc(F)c(NC4CC5CCCN5C(C)(C)C4)n3)cc2OC(F)F)CC1 (stereo not shown) [Compound 6] and answer again.
result: < 500 nM

query: What about this compound? CC(C)N1CCC(Oc2ccc(Nc3ncc(F)c(NC4CC5CCCN5C(C)(C)C4)n3)cc2OC(F)F)CC1 (stereo not shown) [Compound 7]
result: < 10000 nM

###

Test system: PKC mediated IL-2 production
Assay: IL-2 ELISA, human primary T cell, anti CD3+CD28+ (whole cell functional assay)
Assay type: cell-based
Settings: Homo sapiens, T-cell, human primary T cells stimulated with αCD3 and αCD28, IL-2 by ELISA; read-out: EC50 (blocked IL-2 production)
pEC50: −log10 of the molar value.
Quick reference for pEC50 among some compounds

Known results for compounds:
query: Short answer please: pEC50, PKC mediated IL-2 production, entry CC1(C)CC(Nc2nc(Nc3ccc(OC4CCOCC4)c(C#N)c3)ncc2F)CC2CCCN21 (single isomer, unassigned)
result: > 5.00

query: One more compound: C[C@H](O)COc1cc(F)c(Nc2ncc(C#N)c(N[C@@H]3C[C@@H]4CCCN4C(C)(C)C3)n2)cc1-n1nnn(C)c1=O
result: > 5.00

Moving on to another compound below.
query: Query the reported pEC50 for PKC mediated IL-2 production; item: Cn1nnn(-c2cc(Nc3ncc(F)c(N[C@@H]4C[C@@H]5CCCN5C(C)(C)C4)n3)c(F)cc2OCC(C)(C)O)c1=O
result: > 5.00

###

System: PKC mediated IL-2 production
Assay: IL-2 ELISA, human primary T cell, anti CD3+CD28+ (whole cell functional assay)
Format: cell-based
Conditions: T-cell; human primary T cells stimulated with αCD3 and αCD28, IL-2 by ELISA; read-out: EC50 (blocked IL-2 production)
Protocol: Human primary T cells were prepared as follows. […] Human primary T cells (100,000 cells per well) were pre-incubated with or without test compound in RPMI-1640 with L-Glutamine and 10% FBS for 1 hour at 37° C. […] Cells were incubated at 37° C. for 24 hours before 100 μL supernatants were harvested for quantification of IL-2 by ELISA using Human IL-2 Duoset ELISA Kit from R and D Systems, Cat. # DY202E. […]
pEC50: −log10 of the molar value.
Measured pEC50, listed per entry.

query: For the record C[C@@H](O)COc1cc(F)c(Nc2ncc(F)c(N[C@@H]3C[C@@H]4CCCN4C(C)(C)C3)n2)cc1-n1nnn(C)c1=O [Compound 82] , what value of pEC50 is listed for PKC mediated IL-2 production?
result: > 5.00

query: Moving on to Cn1nnn(-c2cc(Nc3ncc(F)c(N[C@@H]4C[C@@H]5CCCN5C(C)(C)C4)n3)c(F)cc2OCCO)c1=O [Compound 77]
result: > 5.00
